List of IC50 values.
measurementTarget: human GPR17 receptor (Homo sapiens, UniProt Q13304)
Sequence (Q13304 whole entry): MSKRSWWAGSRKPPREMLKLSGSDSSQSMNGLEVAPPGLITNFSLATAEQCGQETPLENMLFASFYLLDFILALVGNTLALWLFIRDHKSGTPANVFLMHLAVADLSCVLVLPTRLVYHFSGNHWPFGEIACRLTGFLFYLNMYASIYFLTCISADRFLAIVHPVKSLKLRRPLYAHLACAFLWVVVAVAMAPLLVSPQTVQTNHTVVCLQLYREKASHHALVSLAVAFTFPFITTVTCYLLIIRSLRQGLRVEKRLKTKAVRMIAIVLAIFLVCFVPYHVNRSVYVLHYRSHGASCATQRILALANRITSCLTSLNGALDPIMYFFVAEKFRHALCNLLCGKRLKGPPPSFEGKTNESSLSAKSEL
testProtocol: Calcium mobilization functional assay (Fluo-8, FLIPR TETRA) in HEK-293 hGPR17 (Gα-q assay)
measurementParameters: antagonism of MDL29,951 (~EC80) induced Ca2+ signal; cell line (HEK-293 hGPR17 or HEK-293 Suchi5 hGPR17) not given

compound="O=S(=O)(Nc1cc(F)c(C(F)(F)F)cc1F)c1c[nH]c(-c2ccc(Br)cn2)c1 [Cpd 345]" measurementtarget="human GPR17 receptor (Homo sapiens, UniProt Q13304)" measurementlabel=IC50 observedresult="0.5 to 5 µM"
compound="O=S(=O)(Nc1ccc(C(F)(F)F)c(F)c1F)c1c[nH]c(-c2ccccn2)c1 [Cpd 332]" measurementtarget="human GPR17 receptor (Homo sapiens, UniProt Q13304)" measurementlabel=IC50 observedresult="0.5 to 5 µM"
compound="O=S(=O)(Nc1ccc(F)cc1F)c1c[nH]cc1Cc1ccccc1 [Cpd 151]" measurementtarget="human GPR17 receptor (Homo sapiens, UniProt Q13304)" measurementlabel=IC50 observedresult="5 to 50 µM"
compound="Cn1cccc(-c2cc(S(=O)(=O)Nc3ccc(C#N)cc3F)c[nH]2)c1=O [Cpd 600]" measurementtarget="human GPR17 receptor (Homo sapiens, UniProt Q13304)" measurementlabel=IC50 observedresult="5 to 50 µM"

Consider now this further compound.
Look up and report measured IC50 (human GPR17 receptor (Homo sapiens, UniProt Q13304)) for the following compound: N#Cc1ccc(NS(=O)(=O)c2c[nH]cc2Cc2cccc(Br)c2)c(F)c1 [Cpd 391]
< 0.5 µM
